This document collects pIC50 values reported for cAMP and cAMP-inhibited cGMP 3',5'-cyclic phosphodiesterase 10A (Homo sapiens).
# pIC50: negative log10 of molar concentration; output just the value

Q: Record lookup: for cAMP and cAMP-inhibited cGMP 3',5'-cyclic phosphodiesterase 10A (Homo sapiens), what pIC50 belongs to C[C@]1(O)CC[C@H](c2cccnc2Oc2ccc(Nc3nc4ccccc4s3)cc2)C1 ?
A: 8.64

Q: Record lookup: for cAMP and cAMP-inhibited cGMP 3',5'-cyclic phosphodiesterase 10A (Homo sapiens), what pIC50 belongs to COc1cnccc1-c1cccnc1Oc1ccc(C(=O)c2nc3ccccc3n2C)cc1 ?
A: 9.92

Q: Record lookup: for cAMP and cAMP-inhibited cGMP 3',5'-cyclic phosphodiesterase 10A (Homo sapiens), what pIC50 belongs to Cc1ccc(CCNC(=O)c2cccnc2Oc2ccc(C(=O)c3nc4ccccc4[nH]3)cc2)cc1 ?
A: 8.51

Q: Record lookup: for cAMP and cAMP-inhibited cGMP 3',5'-cyclic phosphodiesterase 10A (Homo sapiens), what pIC50 belongs to O=C(c1ccc(Oc2ncccc2[C@H]2CC[C@@](O)(C(F)(F)F)C2)cc1)c1nc2ccccc2[nH]1 ?
A: 9.14

Q: Record lookup: for cAMP and cAMP-inhibited cGMP 3',5'-cyclic phosphodiesterase 10A (Homo sapiens), what pIC50 belongs to COC1CCN(c2cccnc2Oc2ccc(Nc3nc4ccccc4s3)cc2)CC1 ?
A: 8.50

Q: Record lookup: for cAMP and cAMP-inhibited cGMP 3',5'-cyclic phosphodiesterase 10A (Homo sapiens), what pIC50 belongs to CN(c1ccc(Oc2ncccc2-c2cccnc2)cc1)c1nc2ccccc2s1 ?
A: 7.82

Q: Record lookup: for cAMP and cAMP-inhibited cGMP 3',5'-cyclic phosphodiesterase 10A (Homo sapiens), what pIC50 belongs to C[C@H](Cc1ccc(F)cc1)NC(=O)c1cccnc1Oc1ccc(C(=O)c2nc3ccccc3[nH]2)cc1 ?
A: 9.87

Q: Record lookup: for cAMP and cAMP-inhibited cGMP 3',5'-cyclic phosphodiesterase 10A (Homo sapiens), what pIC50 belongs to CC(=O)N1CCC[C@@H](c2cccnc2Oc2ccc(Nc3nc4ccccc4s3)cc2)C1 ?
A: 9.57

Q: Record lookup: for cAMP and cAMP-inhibited cGMP 3',5'-cyclic phosphodiesterase 10A (Homo sapiens), what pIC50 belongs to FC(F)(c1ccc(Oc2ncccc2C2CCOCC2)cc1)c1nc2ccccc2[nH]1 ?
A: 7.94

Q: Record lookup: for cAMP and cAMP-inhibited cGMP 3',5'-cyclic phosphodiesterase 10A (Homo sapiens), what pIC50 belongs to O=C(c1ccc(Oc2ncccc2N2CCCCC2)cc1)c1nc2ccccc2[nH]1 ?
A: 7.88

Q: Record lookup: for cAMP and cAMP-inhibited cGMP 3',5'-cyclic phosphodiesterase 10A (Homo sapiens), what pIC50 belongs to COc1ncc(-c2ccnc(F)c2)c(Oc2ccc(C(=O)c3nc4ccccc4[nH]3)cc2)n1 ?
A: 7.64

Q: Record lookup: for cAMP and cAMP-inhibited cGMP 3',5'-cyclic phosphodiesterase 10A (Homo sapiens), what pIC50 belongs to O=C(c1ccc(Oc2ncccc2[C@H]2CC[C@]3(CCO3)CC2)cc1)c1nc2ccccc2[nH]1 ?
A: 9.19

Q: Record lookup: for cAMP and cAMP-inhibited cGMP 3',5'-cyclic phosphodiesterase 10A (Homo sapiens), what pIC50 belongs to C[C@]1(O)CC[C@H](c2cccnc2Oc2ccc(C(=O)c3nc4ccccc4[nH]3)cc2)C1 ?
A: 9.18

Q: Record lookup: for cAMP and cAMP-inhibited cGMP 3',5'-cyclic phosphodiesterase 10A (Homo sapiens), what pIC50 belongs to FC(F)(F)c1cc(-c2cccnc2Oc2ccc(Cc3nc4ccccc4[nH]3)cc2)ccn1 ?
A: 6.93

Q: Record lookup: for cAMP and cAMP-inhibited cGMP 3',5'-cyclic phosphodiesterase 10A (Homo sapiens), what pIC50 belongs to COc1ccnc(-c2cccnc2Oc2ccc(C(=O)c3nc4ccccc4n3C)cc2)c1 ?
A: 8.75

Q: Record lookup: for cAMP and cAMP-inhibited cGMP 3',5'-cyclic phosphodiesterase 10A (Homo sapiens), what pIC50 belongs to O=C(c1ccc(Oc2ncccc2C(=O)NC2(Cc3ccccc3)CC2)cc1)c1nc2ccccc2[nH]1 ?
A: 9.77

Q: Record lookup: for cAMP and cAMP-inhibited cGMP 3',5'-cyclic phosphodiesterase 10A (Homo sapiens), what pIC50 belongs to O=C(c1ccc(Oc2ncccc2-c2ccncn2)cc1)c1nc2ccccc2[nH]1 ?
A: 8.13

Q: Record lookup: for cAMP and cAMP-inhibited cGMP 3',5'-cyclic phosphodiesterase 10A (Homo sapiens), what pIC50 belongs to C[C@@]1(O)CC[C@@H](c2cccnc2Oc2ccc(Nc3nc4ccccc4s3)cc2)C1 ?
A: 7.97

Q: Record lookup: for cAMP and cAMP-inhibited cGMP 3',5'-cyclic phosphodiesterase 10A (Homo sapiens), what pIC50 belongs to C[C@@]1(O)CCC[C@@H](c2cccnc2Oc2ccc(Nc3nc4ccccc4s3)cc2)C1 ?
A: 8.44

Q: Record lookup: for cAMP and cAMP-inhibited cGMP 3',5'-cyclic phosphodiesterase 10A (Homo sapiens), what pIC50 belongs to COc1ncccc1-c1cccnc1Oc1ccc(Nc2nc3ccccc3s2)cc1 ?
A: 8.60

Q: Record lookup: for cAMP and cAMP-inhibited cGMP 3',5'-cyclic phosphodiesterase 10A (Homo sapiens), what pIC50 belongs to O=C(c1ccc(Oc2ncccc2C(=O)N[C@H](CO)Cc2ccccc2)cc1)c1nc2ccccc2[nH]1 ?
A: 9.08

Q: Record lookup: for cAMP and cAMP-inhibited cGMP 3',5'-cyclic phosphodiesterase 10A (Homo sapiens), what pIC50 belongs to Brc1cccnc1Oc1ccc(Nc2nc3ccccc3s2)cc1 ?
A: 6.16

Q: Record lookup: for cAMP and cAMP-inhibited cGMP 3',5'-cyclic phosphodiesterase 10A (Homo sapiens), what pIC50 belongs to Cc1cnc(Oc2ccc(C(=O)c3nc4ccccc4n3C)cc2)c(-c2ccnc(C)c2)c1 ?
A: 8.94

Q: Record lookup: for cAMP and cAMP-inhibited cGMP 3',5'-cyclic phosphodiesterase 10A (Homo sapiens), what pIC50 belongs to O[C@@H]1CCC[C@H](c2cccnc2Oc2ccc(Nc3nc4ccccc4s3)cc2)C1 ?
A: 8.66

Q: Record lookup: for cAMP and cAMP-inhibited cGMP 3',5'-cyclic phosphodiesterase 10A (Homo sapiens), what pIC50 belongs to O=C(c1ccc(Oc2ncccc2C2CCOCC2)cc1)c1nc2ncccc2[nH]1 ?
A: 8.87

Q: Record lookup: for cAMP and cAMP-inhibited cGMP 3',5'-cyclic phosphodiesterase 10A (Homo sapiens), what pIC50 belongs to O=C(c1ccc(Oc2ncccc2C(=O)N[C@H](CO)Cc2ccc(O)cc2)cc1)c1nc2ccccc2[nH]1 ?
A: 8.44

Q: Record lookup: for cAMP and cAMP-inhibited cGMP 3',5'-cyclic phosphodiesterase 10A (Homo sapiens), what pIC50 belongs to COc1ccc(-c2cccnc2Oc2ccc(Nc3nc4ccccc4s3)cc2)cn1 ?
A: 7.63

Q: Record lookup: for cAMP and cAMP-inhibited cGMP 3',5'-cyclic phosphodiesterase 10A (Homo sapiens), what pIC50 belongs to CC(=O)N1CCC(c2cccnc2Oc2ccc(C(=O)c3nc4ccccc4[nH]3)cc2)CC1 ?
A: 9.80

Q: Record lookup: for cAMP and cAMP-inhibited cGMP 3',5'-cyclic phosphodiesterase 10A (Homo sapiens), what pIC50 belongs to CN1C[C@@H](c2cccnc2Oc2ccc(Nc3nc4ccccc4s3)cc2)CC1=O ?
A: 9.71

Q: Record lookup: for cAMP and cAMP-inhibited cGMP 3',5'-cyclic phosphodiesterase 10A (Homo sapiens), what pIC50 belongs to Cn1c(C(=O)c2ccc(Oc3ncccc3C3CCOCC3)cc2)nc2ccccc21 ?
A: 9.29

Q: Record lookup: for cAMP and cAMP-inhibited cGMP 3',5'-cyclic phosphodiesterase 10A (Homo sapiens), what pIC50 belongs to C1=C(c2cccnc2Oc2ccc(Nc3nc4ccccc4s3)cc2)CCCC1 ?
A: 7.14

Q: Record lookup: for cAMP and cAMP-inhibited cGMP 3',5'-cyclic phosphodiesterase 10A (Homo sapiens), what pIC50 belongs to COc1ccc(-c2cccnc2Oc2ccc(C(=O)c3nc4ccccc4[nH]3)cc2)c(OC)n1 ?
A: 9.16

Q: Record lookup: for cAMP and cAMP-inhibited cGMP 3',5'-cyclic phosphodiesterase 10A (Homo sapiens), what pIC50 belongs to O=C(c1ccc(Oc2ncccc2[C@@H]2CC[C@H](O)C2)cc1)c1nc2ccccc2[nH]1 ?
A: 9.17
